Provide the recorded z-score for the entries that follow.
Assay: A549 lung cancer cell viability effects, profiling panel, resazurin fluorescence, 24 h, PK04 Diversity Set (AID 1171); also: test concentration not given here
Settings: higher = more signal, called active from +8 up or from −8 down
Active and inactive are the calls of the source.

(Q) Return reported z-score; argument: Cc1ccc(N2C(=O)c3ccccc3[C@](C)(C(=O)NCC(C)C)[C@@H]2c2ccc(CO)cc2)nc1
(A) 0.606 (inactive)

(Q) What value of z-score has been reported for the following compound? CO[C@H]1O[C@H](CO)[C@@H](OC(=O)Nc2ccc(Oc3ccccc3)cc2)[C@H](OC(=O)Nc2ccccc2-c2ccccc2)[C@H]1OC(=O)Nc1ccccc1-c1ccccc1
(A) -4.85 (inactive)

(Q) Field request: z-score | item: CCCC=C(CCC)[C@@H](NS(=O)(=O)c1cccc(C(F)(F)F)c1)c1ccc(C(=O)OC)cc1
(A) 0.206 (inactive)

(Q) What value of measured z-score is listed for COCCOC(=O)N1C(=O)[C@@]2(c3cc(C#CCNC(N)=O)ccc31)[C@H](c1ccc(OCCO)cc1)N1[C@H](c3ccccc3)[C@H](c3ccccc3)OC(=O)[C@H]1[C@@H]2C(=O)Nc1nc2ccccc2s1 ?
(A) 0.708 (inactive)

(Q) I am curious: what z-score value has been reported for O=C1OCCC=C[C@H]2OC34C=CCN(Cc5ccccc5)C(=O)[C@H]3N(CCO)C(=O)[C@@H]4C12 (stereo partly drawn) ?
(A) -0.727 (inactive)

(Q) Dear colleague, I am looking for the recorded z-score of the following compound: O=C(O)[C@@H]1Cc2c([nH]c3ccccc23)[C@@H](c2ccccc2)N1
(A) 0.216 (inactive)

(Q) I would be grateful if you could share the reported z-score for O=C(NCc1ccccc1)[C@@]1(Cc2ccccc2)COC(c2ccc(OCCCO)cc2)=N1 .
(A) -2.77 (inactive)

(Q) Name the recorded z-score for O=C/C=C/c1ccc(/C=C/c2ccccc2)cc1 .
(A) 0.22 (inactive)
